Target entity: ERα (Homo sapiens, UniProt P03372)
Construct: host or cells: MCF7
Sequence (P03372 1-595): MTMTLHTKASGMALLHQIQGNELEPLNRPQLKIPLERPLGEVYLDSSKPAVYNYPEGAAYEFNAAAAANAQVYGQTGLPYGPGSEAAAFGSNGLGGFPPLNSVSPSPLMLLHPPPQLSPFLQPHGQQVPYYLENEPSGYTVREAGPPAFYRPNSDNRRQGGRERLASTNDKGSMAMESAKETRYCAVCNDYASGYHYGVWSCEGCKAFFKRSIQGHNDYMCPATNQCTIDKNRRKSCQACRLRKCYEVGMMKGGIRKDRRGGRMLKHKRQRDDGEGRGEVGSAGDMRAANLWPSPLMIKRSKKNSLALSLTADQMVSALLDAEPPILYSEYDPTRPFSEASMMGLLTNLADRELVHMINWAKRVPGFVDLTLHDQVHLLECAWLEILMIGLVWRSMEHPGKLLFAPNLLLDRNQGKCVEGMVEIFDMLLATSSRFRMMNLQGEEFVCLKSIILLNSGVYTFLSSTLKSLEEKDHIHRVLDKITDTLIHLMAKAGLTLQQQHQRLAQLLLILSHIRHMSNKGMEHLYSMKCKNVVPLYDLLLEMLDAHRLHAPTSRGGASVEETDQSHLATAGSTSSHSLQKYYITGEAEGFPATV
Protocol: Estrogen receptor degradation activity: breast cancer cell ERα in cell western assay (MCF7 cells)
Type: cell-based
Cond: 0.3 μM, 4 hours, relative to fulvestrant 0.1 μM positive control
Measure name: % Degradation At 0.3 μM (%)
The answer is to be given in %; state only the numeric part.

In: What value of % Degradation At 0.3 μM has been recorded for this entry: `Cc1cc(Cl)ccc1C1=C(c2ccc(CC3CN(CCCF)C3)cc2)c2ccc(C(=O)O)cc2CCC1`
Out: 91

In: Entry under review: `O=C(O)c1ccc2c(c1)CCCC(c1cccc(Cl)c1C(F)(F)F)=C2c1ccc(CC2CN(CCC(F)F)C2)cc1` . Reported % Degradation At 0.3 μM?
Out: 86

In: Item under review: `Cl.O=C(O)c1ccc2c(c1)CCCC(c1cc(F)ccc1C(F)(F)F)=C2c1ccc(CC2CN(CCCF)C2)cc1` . Reported % Degradation At 0.3 μM?
Out: 85

In: # query: % Degradation At 0.3 μM of entry CCC1CCc2cc(C(=O)O)ccc2C(c2ccc(CC3CN(CCCF)C3)cc2)=C1c1ccc(Cl)cc1 (single isomer, unassigned) [Example 329]
Out: 89

In: Which value of % Degradation At 0.3 μM has been reported for `Cc1ccc(C2=C(c3ccc(CC4CN(CCCF)C4)cc3)c3ccc(C(=O)O)cc3CCC2)c(C(F)(F)F)c1.Cl` in the records?
Out: 94

In: Given the compound O=C(O)c1ccc2c(c1)CCCC(c1ccc(Cl)cc1Cl)=C2c1ccc(C(F)C2CN(CCCF)C2)cc1 (single isomer, unassigned) [Example 44] , what is its reported % Degradation At 0.3 μM?
Out: 90

In: Item `O=C(O)c1ccc2c(c1)CCCC(c1ccc(Cl)cc1Cl)=C2c1ccc(C(F)(F)C2CN(CCCF)C2)cc1` has what recorded % Degradation At 0.3 μM?
Out: 91

In: Find the recorded % Degradation At 0.3 μM belonging to NC(c1ccc(C2=C(c3ccc(Cl)cc3Cl)CCCc3cc(C(=O)O)ccc32)cc1)C1CN(CCCF)C1 (single isomer, unassigned; isomer 2) [Example 244] and report it.
Out: 86

In: Need % Degradation At 0.3 μM, item `COc1c(Cl)cccc1C1=C(c2ccc(CC3CN(CCCF)C3)cc2)c2ccc(C(=O)O)cc2CCC1`
Out: 91

In: Suppose we examine the compound CCOC(c1ccc(C2=C(c3ccc(Cl)cc3Cl)CCCc3cc(C(=O)O)ccc32)cc1)C1CN(CCCF)C1 (single isomer, unassigned; isomer 2) [Example 230] ; what % Degradation At 0.3 μM value has been reported?
Out: 78

In: If you can, please state the reported % Degradation At 0.3 μM value of `COc1c(C(=O)O)ccc2c1CCCC(c1ccc(F)cc1C)=C2c1ccc(CC2CN(CCCF)C2)cc1` .
Out: 100

In: // query % Degradation At 0.3 μM value for entry `Cc1c(Cl)cccc1C1=C(c2ccc(CC3CN(CCC(F)(F)F)C3)cc2)c2ccc(C(=O)O)cc2CCC1`
Out: 86

In: Return reported % Degradation At 0.3 μM; argument: `COc1cc(F)ccc1C1=C(c2ccc(CC3CN(CCCF)C3)cc2)c2ccc(C(=O)O)cc2CCC1`
Out: 89

Origin of values: patent US12595230B2
